# target.of.assay: T1, human Claudin18.2 (human)
# T1 construct: also called CLDN18.2
# experiment: cell ELISA, Claudin18.2-expressing HEK293T cells
measurement.kind: EC50 (nM)
Number in nM, nothing else.

{"binder": "420F12G8 (antibody, V domains shown, mouse hybridoma mAb) VH: DVQLVESGGGLVQPGGSRKLSCAASGFAFSGFGMHWIRQTPEKGLEWVAYISSGSRPIYYADTVKGRFTISRDNPKNTLFLQMTSLRSEDTAMYFCVRFYYGNSFDHWGQGTLVTVSA VL: DIVMTQSPSFLTVTAGEKVTMTCRSSQNLLNSGNQKNYLTWYQQKPGQPPKLLISWASTRESGVPDRFTGSGSGTDFTLTISSVQPEDLALYYCQNAYSFPFTFGAGTKLELK", "EC50 / nM": 2.61}
{"binder": "425B3D5 (antibody, V domains shown, mouse hybridoma mAb) VH: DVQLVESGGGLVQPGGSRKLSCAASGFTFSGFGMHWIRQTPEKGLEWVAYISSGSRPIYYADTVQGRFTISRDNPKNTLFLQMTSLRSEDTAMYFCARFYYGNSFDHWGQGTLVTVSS VL: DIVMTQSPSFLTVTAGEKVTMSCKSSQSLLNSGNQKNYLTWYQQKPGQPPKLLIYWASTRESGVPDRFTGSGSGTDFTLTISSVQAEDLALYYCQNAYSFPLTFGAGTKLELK", "EC50 / nM": 2.61}

[in] Record request: EC50 value, item 423B2B5 (antibody, V domains shown, mouse hybridoma mAb) VH: DVQLVESGGGLVQPGGSRKLSCAASGFTFSSFGMHWVRQAPEKGLEWVAYISSGSSPIYYSDTVKGRFTISRDNPKNTLFLQMSSLRSEDTAMYFCARIYYGNSFDHWGQGTLVTVSA VL: DIVMTQSPSSLTVTAGEKVTMNCKSSQSLLNSGNQKNYLTWYQQKPGQPPKLLIYWASTRESGVPDRFTGSGSGTDFTLTISSVQAEDLAVYYCQNDYSYPLTFGAGTKLELK
[out] 12.7
